Origin of values: ChEMBL document CHEMBL4364327

protocol: Cytotoxicity against human NCI-BL1184 cells assessed as inhibition of cell viability at 30 uM measured after 48 hrs by MTT assay
Assay type: cell-based
stated_conditions: read-out: INH

>  <compound>
OCC(CC1CCCCC1)NCc1nc2c(OCC3CCCCC3)cccc2[nH]1 (configuration not stated)

>  <cytotoxicity at 48 h, 30 µM [%]>
9.8

$$$$
>  <compound>
CCC(CO)NCc1nc2c(OCC3CCCCC3)cccc2[nH]1 (configuration not stated)

>  <cytotoxicity at 48 h, 30 µM [%]>
10.2

$$$$
